Target: T1, recombinant hCTLA-4-mFc (human CTLA-4 extracellular domain with a C-terminal Fc portion of mouse IgG2a) (human)
T1 construct: also called dimeric CTLA-4 protein
T1 sequence (chain, as listed by the source limits assumed): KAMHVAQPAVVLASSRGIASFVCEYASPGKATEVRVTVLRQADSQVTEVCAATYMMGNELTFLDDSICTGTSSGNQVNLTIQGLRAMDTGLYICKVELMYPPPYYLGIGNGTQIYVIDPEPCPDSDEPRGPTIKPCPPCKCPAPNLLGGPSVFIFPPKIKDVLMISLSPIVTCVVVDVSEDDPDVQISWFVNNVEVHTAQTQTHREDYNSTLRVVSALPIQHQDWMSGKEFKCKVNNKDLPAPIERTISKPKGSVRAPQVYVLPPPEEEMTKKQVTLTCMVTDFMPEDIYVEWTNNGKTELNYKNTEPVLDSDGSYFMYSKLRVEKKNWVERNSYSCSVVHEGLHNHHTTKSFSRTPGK
Assay: competition ELISA, 200 pM hCTLA-4-mFc on plate-coated hB7-1-hIgG1-6His
Reported pIC50 is given for each of the following binders.
FYI, pIC50 means -log10 of a concentration in mol per litre.

Query: Consider the binder H1H19280P (antibody, human IgG1, V domains shown) VH: QLQLQESGPGLVKPSETLSLTCIVSGGSTSSNTYYWGWIRQPPGKGLEWIGTIHYSGNPYYDPSLKSRVTISVDTSKNHFSLKLNSVTAADTAVYYCTRQYINFFDFWGQGTLVTVSS VL: EIVLTQSPATLSLSPGERVTLSCRASQSISRYLAWYQQKPGQAPRVLIYDASNRATDIPARFSGSGSGTDFTLTISSLEPEDFAVYYCQQRSNWPITFGQGTRLEIK and give its measured pIC50.
Result: 9.96

Query: Consider the binder shown here: H1H19303P (antibody, human IgG1, kappa, V domains shown, also called REGN4659) VH: EVQLVESGGGLVQPGGSLRLSCAASGFTFSNYEMSWVRQAPGKGLEWVSSIRTSGTTKYYADSMKGRFTISRDNAKNSLYLQMNSLRAEDTAVYYCAGGGTFLHYWGQGTLVTVSS VL: DIQMTQSPSSVSASVGDRVTITCRASQGIASYLAWYQQKPGKAPKLLIYAASSLQTGVPSRFSGSGYGTDFTLTISSLQPEDFATYYCQQAKSFPMYTFGQGTKLEIKR What is its recorded pIC50?
Result: 6.74

Continuing:
Query: Please report the recorded pIC50 for H1H19313P (antibody, human IgG1, V domains shown) VH: QITLKESGPTLVKPTQTLTLTCTFSGFSLSTSGVGVGWIRQPPGVALEWLALIYWNDDKRFSPSLKSRLTITKDTSKNQVVLTMTNMDPVDTATYYCAHRRLGLYYFDYWGQGTLVTVSS VL: DIQLTQSPSFLSASVGDRVTITCWASQGISSYLAWYQQKPGKAPKLLIYAASTLQSGVPSRFSGSGSGTEFTLTISSLQPEDFATYYCQQVHIYPFTFGPGTKVDIK .
Result: 9.40

Query: pIC50 for H1H20370N (antibody, human IgG1, V domains shown, here with human IgG1 Fc (H1H)) VH: QVQLHESGPGLVKPSQTLSLTCSVSGGSISNGGYYWSWIRQHPGQGLEWIGYIYYIGNTYYNPSLESRVTMSIDTSKNQFSLKLSSVTAADTAIYYCARQEFVPGAEYFLHWGQGILVTVSS VL: DIRMTQSPSSLSASVGDRVTITCRASQTVNTFLNWYQQKPGKAPKLLIFGASSLQSGVPSRFSGSGSGTDFTLTISGLQPEDFAIYYCQQSYSVPPITFGQGTRLEIE ?
Result: 9.07

Query: Consider the binder shown here: H1H19294P (antibody, human IgG1, V domains shown) VH: QVQLVQSGAEVKMSGASVRVSCKASGYTFTSYGISWMRQAPGQGLEWMGWITAYNGNSNYAQKLQGRVTMTTDTSTGTAYMELRSLTSDDTAVYYCARRGDYLGVFPYWGQGTLVTVSS VL: DIQMTQSPSSLSASVGDRVTITCRASQSISSYLNWYQQKPGKAPNLLIYTASSLQSGVPSRFSGSGSGTDFTLTISSLQPEDFATYYCQQSYSSPLTFGGGTKVEIK What is its recorded pIC50?
Result: 9.82

Query: Given the entry H1H19291P (antibody, human IgG1, V domains shown) VH: QVQLVESGGGVVQPGRSLRLSCAASGFTFSTYGMHWVRQAPGKGLEWVTVIWYDGNNKYYADSVKGRFTISRDNSKNTLYLQMNNLRAEDTALYYCARGGGRLSYYHDYWGQGTLVTVSS VL: DIQMTQSPSSLSASVGDRVTITCRASQSISTFLNWYQQKPGKAPNLLIYGTSSLQSGVPSRFSGSGSGTDFTLTISSLQPEDFAAYYCQQTYSTPFTFGPGTKVDIK , report its measured pIC50.
Result: 8.70

Query: Any idea what its pIC50 is? The binder is H1H19274P (antibody, human IgG1, V domains shown) VH: QVQLQESGPGLVKPSETLSLTCTVSGGSINSYYWTWIRQPPGKGLEWIGYVYYSGSTTYNPSLKSRVTISVDTSKNQFFLNLNSVTAAETAVYYCARGTLGYYGMDVWGQGTTVTVSS VL: EIVLTQSPGTLSLSPGERATLSCRASQSFSNNYLAWYQQKPGQAPRLLIYGTSIRATGIPDRFSGSGSGTDFTLAISRLEPEDFAVYYCQQYGRSPLTFGGGTKVEIK
Result: 9.89

Query: # pIC50 lookup, item H1H19278P (antibody, human IgG1, V domains shown) VH: QVQLVESGGGVVQPGRSLRLSCAASGFTFSSYGMNWVRQAPGKGLEWVAVTWYDGSNKHYADSVKGRFTISRDNSKNTLYLQMYSLRAEDTAMYYCVRGGHLGAFDIWGQGTMVTVSS VL: EIVLTQSPGTLSLSPGERATLSCRASQSVSSYLAWYQQKPGQAPRLLIYGASSRATGIPDRFSGGGSGTDFTLTISRLEPEDFAVYYCQQYGSSPFTFGPGTKVDIK
Result: 9.49

Query: I have this binder here, H1H19307P (antibody, human IgG1, V domains shown) VH: EVQLVESGGGLVQPGGSLRLACAASGFTFSDYYMDWVRQVPGKGLEWVGRSRDKANSFTTEYVASVKGRFTISREDSKNSVYLQMNSLKTEDTAVYYCARTNYDFSLDVWGQGTTVTVSS VL: DIQMTQSPSSLSASVGDRVTITCRASQDINNYLAWFQQKPGNAPKSLIYAASSLQSGVPSKFSGSGSGTDFTLTISSLQPEDFATYYCQQYSTYPITFGQGTRLEIK , and I need its recorded pIC50.
Result: 9.74

Query: Quick one: pIC50 for H1H19273P (antibody, human IgG1, V domains shown) VH: QITLKESGPTLVKPTQTLTLTCTFSGFSLSTSGVGVGWIRQSPGRALEWLALIYWNDHERYSPSLKSRLTITKDTSKNLVVLAMANMDPVDTATYFCAHRNIEYRRSYFFDYWGQGTLVTVSS VL: DIQMTQSPSSVSASVRDRVTVTCRASQDINNWLAWYQQKPGKAPKLLIYAASSLQSGVPSRFSGSGSGTDFTLTISSLQPEDFATYYCQQANTFPFTFGPGTKVDIK ?
Result: 9.60
